# condition info: human, microsomes, 0.5 h, 0.5 µM
attribute measured: CLH

CN1CCN(C(=O)COc2ccc3cc(Oc4ccccn4)ccc3n2)CC1 : < 33 mL/min/kg

*Q* Please look up its CLH: `N#Cc1ccc(Oc2ccc3nc(OCC(=O)N4CCNC(=O)C4)ccc3c2)cc1`
*A* < 33 mL/min/kg

*Q* Please look up its CLH: `O=C1CN(C(=O)COc2ccc3cc(Oc4ccc(C(F)(F)F)cn4)ccc3n2)CCN1`
*A* < 56.7 mL/min/kg

---

# condition info: rat, microsomes, 0.5 h, 0.5 µM
attribute measured: CLH (mL/min/kg)
Value expressed in mL/min/kg; do not type the unit.

Field: example entries. Status: answers known.
N#Cc1ccc(Oc2ccc3c(ccc(=O)n3CCN3CCCCC3)c2)cc1 : 633
N#Cc1ccc(Oc2ccc3nc(OCCN4CCCCC4)ccc3c2)cc1 : 217
N#Cc1ccc(-c2ccc3c(ccc(=O)n3CCN3CCCCC3)c2)cc1 : 100
CN1CCN(C(=O)COc2ccc3cc(Oc4ccc(C(F)(F)F)cn4)ccc3n2)CC1 : 967

*Q* Please look up its CLH: `CN1CCN(C(=O)COc2ccc3cc(Oc4ccccn4)ccc3n2)CC1`
*A* 567
